Target: Multidrug efflux pump subunit AcrB (Escherichia coli (strain K12))
Experiment: Inhibition of AcrB in multidrug-resistant Escherichia coli BW25113 assessed as potentiation of erythromycin-induced antibacterial activity by measuring erythromycin MIC at 128 ug/ml by checkerboard titration method (reference value: 64 ug/ml)
Conditions: dose 128.0 µg/ml
property-measured: MIC (µg/mL)
I only need the number, in µg/mL, no unit after it.

INSERT INTO results (compound, measured_on, observed_value) VALUES
  ('C[C@@H](Cc1ccc(O)c(O)c1)[C@@H](C)Cc1ccc(O)c(O)c1', 'Multidrug efflux pump subunit AcrB (Escherichia coli (strain K12))', 64);

Can you look up MIC on Multidrug efflux pump subunit AcrB (Escherichia coli (strain K12)) for CC1(C)CCc2c(Cn3cnnn3)cc3c(OCc4ccccc4)cccc3c2O1 ?
64

Can you look up MIC on Multidrug efflux pump subunit AcrB (Escherichia coli (strain K12)) for C=CC(=O)Nc1ccc(COc2cccc3c4c(c(Cn5cnnn5)cc23)CCC(C)(C)O4)cc1 ?
32

Can you look up MIC on Multidrug efflux pump subunit AcrB (Escherichia coli (strain K12)) for CC1CN(C(=O)c2cc3c(OCc4ccc(Br)cc4)cccc3c3c2CCC(C)(C)O3)CC(C)O1 (centres undefined) ?
32

Can you look up MIC on Multidrug efflux pump subunit AcrB (Escherichia coli (strain K12)) for CC1(C)CCc2c(C(=O)N3CCOCC3)cc3c(OCc4ccccc4)cccc3c2O1 ?
8

Can you look up MIC on Multidrug efflux pump subunit AcrB (Escherichia coli (strain K12)) for CC1CN(C(=O)c2cc3c(OCc4c(Cl)cccc4Cl)cccc3c3c2CCC(C)(C)O3)CC(C)O1 (centres undefined) ?
64

Can you look up MIC on Multidrug efflux pump subunit AcrB (Escherichia coli (strain K12)) for C=CC(=O)Nc1ccc(COc2cccc3c4c(c(C(=O)N5CCOCC5)cc23)CCC(C)(C)O4)cc1 ?
8

Can you look up MIC on Multidrug efflux pump subunit AcrB (Escherichia coli (strain K12)) for COc1cccc(COc2cccc3c4c(c(C(=O)O)cc23)CCC(C)(C)O4)c1 ?
16

Can you look up MIC on Multidrug efflux pump subunit AcrB (Escherichia coli (strain K12)) for CC1(C)CCc2c(Cn3cnnn3)cc3c(OCc4ccc([N+](=O)[O-])cc4)cccc3c2O1 ?
64
